B1: HDV Ribozyme (parent)
chain: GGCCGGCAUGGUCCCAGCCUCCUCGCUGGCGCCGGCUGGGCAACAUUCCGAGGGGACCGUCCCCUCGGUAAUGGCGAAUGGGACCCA

Variants of: B1
Test: self-cleavage, relative activity (ratio to wild type); higher = more cleavage; co-transcriptional
Quick list: self-cleavage per entry.
Answer with a bare number; do not write a unit.

Record excerpt, results attached:
> print(dat)
   mutant.designation  reported.endpoint  experimental.value
1           G11U U12A      self-cleavage               0.116
2            A8G A78G      self-cleavage               0.128
3           G67A A78U      self-cleavage               0.234

Which measured self-cleavage value corresponds to C19A C30A ? 0.0357

Query (variant): G10A C85U ; field requested: self-cleavage 0.946

Please give the measured self-cleavage for this variant: A71C A87U 0.844
